System: NCI-H460 lung
Result category, one only: YES for active, NO for inactive

What was the test verdict on Cc1ccc(C2=C(c3ccc(C)cc3)C3(c4ccc(C)cc4)C4C(=O)OC(=O)C4C2(c2ccc(C)cc2)S3=O)cc1 (stereo not given) ?
NO

What was the test verdict on Nc1ncc(-c2cnn(C3CCNCC3)c2)cc1-c1nc2cc(Cl)ccc2o1 ?
NO

What was the test verdict on CCN1C(=O)/C(=C/c2c(Cl)[nH]c3cc(C)c(OC)cc23)c2ccccc21 ?
NO

What was the test verdict on CS(=O)(=O)CCNCc1coc(-c2ccc3ncnc(Nc4ccc(OCc5ccccc5)cc4)c3c2)c1 ?
NO

What was the test verdict on C#CC1(O)C(COP(=O)(O)OCC(COP(=O)(O)OCC2OC(n3cc(F)c(=O)[nH]c3=O)CC2O)OCCCCCCCCCCCCCCCCCC)OC(n2ccc(N)nc2=O)C1O (stereo not given) ?
YES

Data provenance is PubChem BioAssay (NCI).
